pIC50: −log10 of the molar value.
List of pIC50 tested on p38α (Homo sapiens, UniProt Q16539).
Sequence (Q16539 whole entry): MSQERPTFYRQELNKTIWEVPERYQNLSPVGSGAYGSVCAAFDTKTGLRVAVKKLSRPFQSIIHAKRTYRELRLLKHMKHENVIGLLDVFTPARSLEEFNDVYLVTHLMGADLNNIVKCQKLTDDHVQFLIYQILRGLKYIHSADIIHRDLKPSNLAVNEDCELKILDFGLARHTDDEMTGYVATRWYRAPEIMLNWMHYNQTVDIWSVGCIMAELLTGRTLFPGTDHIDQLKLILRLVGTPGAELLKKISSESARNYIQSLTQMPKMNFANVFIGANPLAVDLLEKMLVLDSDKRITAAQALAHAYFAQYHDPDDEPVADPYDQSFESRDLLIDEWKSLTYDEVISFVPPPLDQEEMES
MEASURED_METRIC: pIC50

1 = CCCN1CCCN(c2ccc3ncn(-c4cc(C(=O)NC5CC5)ccc4C)c(=O)c3c2)CC1
2 = Cc1ccc(NC(=O)c2ccnc(Cl)c2)cc1-n1cnc2ccc(N3CCN(C)CC3)cc2c1=O [Comparator Compound A, reference compound]
3 = Cc1ccc(C(=O)NC2CC2)cc1-n1cnc2ccc(OCCN(C)C)cc2c1=O
4 = Cc1ccc(NC(=O)c2cc(F)cc(F)c2)cc1-n1cnc2ccc(N3CCN(C)CC3)cc2c1=O [Comparator Compound B, reference compound]
## Input Arrange items by their pIC50 values in increasing order. Labels, ranked as asked.
## Output 2, 4, 3, 1
